Data provenance: paper PMC9749936

System: Sheep red blood cells
Type: cell-based
Conditions: red cells of sheep, 1 h, 64 μg mL^−1
Experimental: Having ascertained the antimicrobial activity of all synthetic peptides against a panel of ESKAPE pathogens, we next assessed their mammalian toxicity with hemolytic assays using sheep red blood cells. The % hemolysis for all peptides at 64 μg mL^−1 was determined, with the hemolysis induced by the surfactant 0.1% Triton X-100 taken as 100%. […] Hemolysis was <1% for all analogues with a C8 chain or shorter, including the strongest antibacterial peptide C8-Lat (22). […]
Bridge positions count the residues as written; N and C are the ends. Square brackets hold non-standard residues; d marks the D form. Peptide text beside a SMILES is read from it. * marks the point of attachment. ξ: configuration not given here. Palmitoyl = CCCCCCCCCCCCCCCC(=O)*; Hexanoyl(4ξ-Me) = CCC(C)CCC(=O)*; Lauroyl = CCCCCCCCCCCC(=O)*; Decanoyl = CCCCCCCCCC(=O)*; dOrn = NCCC[C@@H](N)C(=O)O; Octanoyl = CCCCCCCC(=O)*; Orn = NCCC[C@H](N)C(=O)O; Hexanoyl = CCCCCC(=O)*
Collected % Hemolytic activity, sheep red blood cells values appear next to each entry.
Quantity Measured: % Hemolytic activity, sheep red blood cells

| Compound | Measured |
| --- | --- |
| CCCCCCCCCC(=O)N[C@H](CC(N)=O)C(=O)N[C@H](Cc1ccc(O)cc1)C(=O)N[C@H](Cc1c[nH]c2ccccc12)C(=O)N[C@H](CCCN)C(=O)N[C@@H](CCCN)C(=O)NCC(=O)N[C@H](CCCN)C(=O)N[C@@H](Cc1c[nH]c2ccccc12)C(=O)N[C@@H]1C(=O)N[C@@H]([C@@H](C)CC)C(=O)NCC(=O)N[C@@H](CO)C(=O)O[C@@H]1C [Compound 14] (Decanoyl-[dN][dY][dW][dOrn][Orn]G[dOrn]WTIGS; ester 9-C) | 6.2% |
| CCC(C)CCC(=O)N[C@H](CC(N)=O)C(=O)N[C@H](Cc1ccc(O)cc1)C(=O)N[C@H](Cc1c[nH]c2ccccc12)C(=O)N[C@H](CCCN)C(=O)N[C@@H](CCCN)C(=O)NCC(=O)N[C@H](CCCN)C(=O)N[C@@H](Cc1c[nH]c2ccccc12)C(=O)N[C@@H]1C(=O)N[C@@H]([C@@H](C)CC)C(=O)NCC(=O)N[C@@H](CO)C(=O)O[C@@H]1C (stereo partly drawn) [Compound 1, brevicidine] ({Hexanoyl(4ξ-Me)}-[dN][dY][dW][dOrn][Orn]G[dOrn]WTIGS; ester 9-C) | 0.8% |
| CC[C@H](C)[C@@H]1NC(=O)[C@@H](NC(=O)[C@H](Cc2c[nH]c3ccccc23)NC(=O)[C@@H](CCCN)NC(=O)CNC(=O)[C@H](CCCN)NC(=O)[C@@H](CCCN)NC(=O)[C@@H](Cc2c[nH]c3ccccc23)NC(=O)[C@@H](Cc2ccc(O)cc2)NC(=O)[C@H](N)CO)[C@@H](C)OC(=O)CNC(=O)CNC(=O)[C@H](CC(N)=O)NC1=O [Compound 18] (H-[dS][dY][dW][dOrn][Orn]G[dOrn]WTINGG; ester 9-C) | 0.2% |
| CC[C@H](C)[C@@H]1NC(=O)[C@@H](NC(=O)[C@H](Cc2c[nH]c3ccccc23)NC(=O)[C@@H](CCCN)NC(=O)CNC(=O)[C@H](CCCN)NC(=O)[C@@H](CCCN)NC(=O)[C@@H](Cc2c[nH]c3ccccc23)NC(=O)[C@@H](Cc2ccc(O)cc2)NC(=O)[C@H](N)CC(N)=O)[C@@H](C)OC(=O)[C@H](CO)NC(=O)CNC1=O | 0.2% |
| CCCCCC(=O)N[C@H](CO)C(=O)N[C@H](Cc1ccc(O)cc1)C(=O)N[C@H](Cc1c[nH]c2ccccc12)C(=O)N[C@H](CCCN)C(=O)N[C@@H](CCCN)C(=O)NCC(=O)N[C@H](CCCN)C(=O)N[C@@H](Cc1c[nH]c2ccccc12)C(=O)N[C@@H]1C(=O)N[C@@H]([C@@H](C)CC)C(=O)N[C@@H](CC(N)=O)C(=O)NCC(=O)NCC(=O)O[C@@H]1C [Compound 21] (Hexanoyl-[dS][dY][dW][dOrn][Orn]G[dOrn]WTINGG; ester 9-C) | 0.2% |
| CC[C@H](C)[C@@H]1NC(=O)[C@@H](NC(=O)[C@H](Cc2c[nH]c3ccccc23)NC(=O)[C@@H](CCCN)NC(=O)CNC(=O)[C@H](CCCN)NC(=O)[C@@H](CCCN)NC(=O)[C@@H](Cc2c[nH]c3ccccc23)NC(=O)[C@@H](Cc2ccc(O)cc2)NC(=O)[C@@H](CC(N)=O)NC(C)=O)[C@@H](C)OC(=O)[C@H](CO)NC(=O)CNC1=O [Compound 10] (Ac-[dN][dY][dW][dOrn][Orn]G[dOrn]WTIGS; ester 9-C) | 0.2% |
| CCCCCCCCCCCC(=O)N[C@H](CC(N)=O)C(=O)N[C@H](Cc1ccc(O)cc1)C(=O)N[C@H](Cc1c[nH]c2ccccc12)C(=O)N[C@H](CCCN)C(=O)N[C@@H](CCCN)C(=O)NCC(=O)N[C@H](CCCN)C(=O)N[C@@H](Cc1c[nH]c2ccccc12)C(=O)N[C@@H]1C(=O)N[C@@H]([C@@H](C)CC)C(=O)NCC(=O)N[C@@H](CO)C(=O)O[C@@H]1C [Compound 15] (Lauroyl-[dN][dY][dW][dOrn][Orn]G[dOrn]WTIGS; ester 9-C) | 13.3% |
| CCCCCCCCCCCCCCCC(=O)N[C@H](CC(N)=O)C(=O)N[C@H](Cc1ccc(O)cc1)C(=O)N[C@H](Cc1c[nH]c2ccccc12)C(=O)N[C@H](CCCN)C(=O)N[C@@H](CCCN)C(=O)NCC(=O)N[C@H](CCCN)C(=O)N[C@@H](Cc1c[nH]c2ccccc12)C(=O)N[C@@H]1C(=O)N[C@@H]([C@@H](C)CC)C(=O)NCC(=O)N[C@@H](CO)C(=O)O[C@@H]1C [Compound 17] (Palmitoyl-[dN][dY][dW][dOrn][Orn]G[dOrn]WTIGS; ester 9-C) | 13.3% |
| CCCCCCCC(=O)N[C@H](CC(N)=O)C(=O)N[C@H](Cc1ccc(O)cc1)C(=O)N[C@H](Cc1c[nH]c2ccccc12)C(=O)N[C@H](CCCN)C(=O)N[C@@H](CCCN)C(=O)NCC(=O)N[C@H](CCCN)C(=O)N[C@@H](Cc1c[nH]c2ccccc12)C(=O)N[C@@H]1C(=O)N[C@@H]([C@@H](C)CC)C(=O)NCC(=O)N[C@@H](CO)C(=O)O[C@@H]1C [Compound 13] (Octanoyl-[dN][dY][dW][dOrn][Orn]G[dOrn]WTIGS; ester 9-C) | 0.4% |
